assay: Selectivity index, ratio of CC50 for cytotoxicity against human HepG2 cell to IC50 for antimalarial activity against Plasmodium falciparum 3D7 infected in red blood cells
Format: toxicity, cell-based
study.conditions: read-out: Ratio CC50/IC50
value.type: selectivity ratio
Numbers only.

The examples below pair each entry with its known result.
                                 mol_smiles         value_type  measured
0  O=C(NC1CC1)c1ccc(N2CCN(c3cccc(O)c3)CC2)nc1  selectivity ratio         9
1  O=C(NC1CC1)c1ccc(N2CCN(Cc3ccccc3)CC2)nc1  selectivity ratio         1

Kindly consider the entry below.
Enquiry: For `O=C(NC1CC1)c1ccc(N2CCN(c3ncccc3[N+](=O)[O-])CC2)nc1` , what is its reported selectivity ratio?
Return: 9

====

assay: Selectivity index, ratio of CC50 for cytotoxicity against human HepG2 cell to IC50 for antimalarial activity against chloroquine-resistant Plasmodium falciparum Dd2 infected in red blood cells
Type: toxicity, cell-based
study.conditions: read-out: Ratio CC50/IC50
Exercise: for every item that follows, state its recorded selectivity ratio.

Reference set, count: 6
In [3]: df
Out[3]:
                                 mol_smiles  measured
0  Cc1ccccc1N1CCN(c2ccc(C(=O)NC3CC3)cn2)CC1     > 143
1  O=C(NC1CC1)c1ccc(N2CCN(c3ncccc3C(F)(F)F)CC2)nc1      > 23
2  O=C(NC1CC1)c1ccc(N2CCN(c3cccc(O)c3)CC2)nc1         5
3  O=C(NC1CC1)c1ccc(N2CCN(c3ncccc3[N+](=O)[O-])CC2)nc1         5
4   O=C(NC1CC1)c1ccc(N2CCN(c3cnccn3)CC2)nc1      > 28
5  O=C(NC1CC1)c1ccc(N2CCN(c3ccccc3C(F)(F)F)CC2)nc1     > 200

Would you be so kind as to report selectivity ratio for each listed record?
1. O=C(NC1CC1)c1ccc(N2CCN(c3ccccc3)CC2)nc1
2. COc1ccc(CN2CCN(c3ccc(C(=O)NC4CC4)cn3)CC2)cc1
3. O=C(NC1CC1)c1ccc(N2CCN(Cc3ccccc3)CC2)nc1
4. N#Cc1cccnc1N1CCN(c2ccc(C(=O)NC3CC3)cn2)CC1

Return:
> 30
> 8
2
> 7

====

assay: Selectivity index, ratio of CC50 for cytotoxicity against human HepG2 cell to IC50 for antimalarial activity against Plasmodium falciparum 3D7 infected in red blood cells
Assay type: toxicity, cell-based
study.conditions: read-out: Ratio CC50/IC50
value.type: selectivity ratio

Sample records with selectivity ratio:
>>> print(df.to_string())
                                 mol_smiles  measured
0  O=C(NC1CC1)c1ccc(N2CCN(c3ncccc3C(F)(F)F)CC2)nc1      > 96
1  COc1ccc(CN2CCN(c3ccc(C(=O)NC4CC4)cn3)CC2)cc1      > 15
2   O=C(NC1CC1)c1ccc(N2CCN(c3ccccn3)CC2)nc1       > 7
3  N#Cc1cccnc1N1CCN(c2ccc(C(=O)NC3CC3)cn2)CC1      > 15

Enquiry: Could you share which selectivity ratio value was measured for `O=C(NC1CC1)c1ccc(N2CCN(c3cnccn3)CC2)nc1` ?
Return: > 36

====

assay: Selectivity index, ratio of CC50 for cytotoxicity against human HepG2 cell to IC50 for antimalarial activity against Plasmodium falciparum 3D7 infected in red blood cells
Type: toxicity, cell-based
study.conditions: read-out: Ratio CC50/IC50
Please provide measured selectivity ratio for the entries that follow.

>>> df
                                 mol_smiles  measured
0  O=C(NC1CC1)c1ccc(N2CCN(c3ccccc3C(F)(F)F)CC2)nc1      > 59

Your task in this section: give selectivity ratio for each listed record.
1. O=C(NC1CC1)c1ccc(N2CCN(c3ccccc3)CC2)nc1
2. Cc1ccccc1N1CCN(c2ccc(C(=O)NC3CC3)cn2)CC1

Return:
["> 21", "> 100"]
